target: IGF-1R (Homo sapiens); construct: purchased Upstate Co. 14-465; assay: IGF-1R inhibitory activity (kinase reaction, time-resolved fluoroimmunoassay); format: biochemical; conditions: test compound 10 μmol/L
Sequence (P08069 959-1367 limits assumed): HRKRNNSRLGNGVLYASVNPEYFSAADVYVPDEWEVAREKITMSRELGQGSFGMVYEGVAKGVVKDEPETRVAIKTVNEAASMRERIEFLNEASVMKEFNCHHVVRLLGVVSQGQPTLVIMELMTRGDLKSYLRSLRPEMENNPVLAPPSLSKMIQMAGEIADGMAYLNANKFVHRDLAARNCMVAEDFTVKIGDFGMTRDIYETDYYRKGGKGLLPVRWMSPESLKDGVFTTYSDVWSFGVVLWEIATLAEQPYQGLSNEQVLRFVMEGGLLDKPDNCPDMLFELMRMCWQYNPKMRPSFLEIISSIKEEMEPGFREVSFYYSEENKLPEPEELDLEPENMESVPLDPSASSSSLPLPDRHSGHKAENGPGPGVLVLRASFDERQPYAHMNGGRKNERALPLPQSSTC
quantity: inhibitory activity (%) at 10 μmol/L
Express your answer in %, writing the number without its unit.

Cc1ccsc1C(=O)Nc1cc(C(=O)N2CCC3(CC2)OCCO3)ccc1/C=C/c1n[nH]c2ccccc12.Cl: 99.9
Cc1ccsc1C(=O)Nc1cc(C(=O)N2CCN(C)CC2)ccc1/C=C/c1n[nH]c2ccccc12.Cl: 98.8
Cc1ccsc1C(=O)Nc1cc(C(=O)N2CCOCC2)ccc1/C=C/c1n[nH]c2ccccc12.Cl: 100.1
COC1CCN(C(=O)c2ccc(/C=C/c3n[nH]c4ccccc34)c(NC(=O)c3sccc3C)c2)CC1.Cl: 101.9
Cc1ccsc1C(=O)Nc1cc(C(=O)N(C)C)ccc1/C=C/c1n[nH]c2ccccc12.Cl: 100.9

Recorded result, CCN(CC)C(=O)c1ccc(/C=C/c2n[nH]c3ccccc23)c(NC(=O)c2sccc2C)c1.Cl , inhibitory activity (%) at 10 μmol/L: 98.9
